# TARGET DESC: RARβ (Homo sapiens)
# Construct: expressed in transfected cells; host or cells: CV1 cells
# Sequence (P10826 1-455): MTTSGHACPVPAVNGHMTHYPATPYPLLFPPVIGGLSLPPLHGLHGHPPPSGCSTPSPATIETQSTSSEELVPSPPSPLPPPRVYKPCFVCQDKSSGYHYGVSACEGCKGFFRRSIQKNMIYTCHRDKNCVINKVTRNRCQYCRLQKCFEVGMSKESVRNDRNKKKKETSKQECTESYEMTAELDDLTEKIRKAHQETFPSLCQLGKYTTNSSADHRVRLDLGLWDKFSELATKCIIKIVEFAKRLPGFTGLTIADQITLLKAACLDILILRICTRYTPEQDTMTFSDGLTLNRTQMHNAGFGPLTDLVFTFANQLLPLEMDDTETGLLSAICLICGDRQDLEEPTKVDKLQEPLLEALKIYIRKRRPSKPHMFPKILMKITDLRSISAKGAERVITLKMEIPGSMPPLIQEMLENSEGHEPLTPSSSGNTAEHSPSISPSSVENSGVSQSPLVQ
# ASSAY METHOD TEXT: Holoreceptor transactivation assay, RARβ
# Type: cell-based
# STUDY CONDITIONS: relative to all trans retinoic acid
# Experimental: A description of the holoreceptor transactivation assay is also provided below. (8). […] (8, 9). […] A β-galactosidase (50 ng) expression vector was used as an internal control in the transfections to normalize for variations in transfection efficiency. The cells were transfected in triplicate for 6 hours, followed by incubation with retinoids for 36 hours, and the extracts were assayed for luciferase and β-galactosidase activities. […]
REPORTED PROPERTY: Transactivation Assay Afficacy (% of RA activity) RARβ

Below: 3 molecules and their reported Transactivation Assay Afficacy (% of RA activity) RARβ.
MOLECULE | TARGET DESC | OBSERVED RESULT
CC(C=CC1CC1(C)c1ccc2c(c1)C(C)(C)CCS2)=CC(=O)O (stereo not shown) | RARβ (Homo sapiens) | 29 % of RA activity
CC(/C=C/c1ccccc1-c1ccc2c(c1)C(C)(C)CCC2(C)C)=C\C(=O)O | RARβ (Homo sapiens) | 8.0 % of RA activity
CC(C=CC1CC1(C)c1cc2c(cc1C)C(C)(C)CCC2(C)C)=CC(=O)O (stereo not shown) | RARβ (Homo sapiens) | 3.0 % of RA activity

Now for the molecule whose Transactivation Assay Afficacy (% of RA activity) RARβ we want.
What value of Transactivation Assay Afficacy (% of RA activity) RARβ has been recorded for this entry: CC(C=CC1CC1(C)c1ccc2c(c1)C(C)(C)CCO2)=CC(=O)O (stereo not shown) 26.0 % of RA activity
